OD450 values by entry
Biological target: T1, monkey CD22 protein (ACROBiosystems, catalog number SI2-R52Ha) (monkey, UniProt F6W485 20-688)
T1 construct: commercial protein; also called monkey CD22-ECD; monkey CD22-ECD-His
T1 sequence: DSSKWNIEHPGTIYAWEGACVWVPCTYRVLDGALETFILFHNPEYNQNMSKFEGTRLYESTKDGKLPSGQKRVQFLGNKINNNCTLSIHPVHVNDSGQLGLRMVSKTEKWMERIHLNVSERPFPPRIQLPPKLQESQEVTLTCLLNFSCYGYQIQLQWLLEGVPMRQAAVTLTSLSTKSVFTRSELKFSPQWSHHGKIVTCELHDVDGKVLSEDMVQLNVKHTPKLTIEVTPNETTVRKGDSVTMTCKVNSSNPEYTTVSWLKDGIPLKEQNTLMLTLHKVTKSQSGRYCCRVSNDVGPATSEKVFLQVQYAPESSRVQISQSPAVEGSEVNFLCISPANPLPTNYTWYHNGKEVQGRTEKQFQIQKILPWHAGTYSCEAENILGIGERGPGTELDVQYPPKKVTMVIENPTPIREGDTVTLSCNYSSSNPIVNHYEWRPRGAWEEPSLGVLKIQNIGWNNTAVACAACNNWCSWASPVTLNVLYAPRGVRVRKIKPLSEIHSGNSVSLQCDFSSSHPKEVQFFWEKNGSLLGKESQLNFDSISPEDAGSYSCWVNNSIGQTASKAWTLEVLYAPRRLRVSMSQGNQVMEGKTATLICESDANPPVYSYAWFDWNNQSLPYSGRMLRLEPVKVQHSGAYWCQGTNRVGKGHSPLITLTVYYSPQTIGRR
Assay: ELISA, coated monkey CD22 protein, antibody 0.01 nM
Protocol: In order to detect the binding activity of CD22 human-murine chimeric antibodies to CD22 protein, the purified human CD22-ECD-His protein obtained in Example 2 was diluted with PBS to a final concentration of 2 μg/mL, and then added to 96-well ELISA plate at 100 μl/well. The plate was sealed with plastic film and incubated overnight at 4° C., the plate was washed 2 times with PBS the next day, and then a blocking solution [PBS+2% (w/w) BSA] was added for blocking at room temperature for 2 hours. […]

Binder	OD450
F2.70.2 (antibody, human IgG1, lambda, V domains shown, human-murine chimeric IgG1 lambda) VH: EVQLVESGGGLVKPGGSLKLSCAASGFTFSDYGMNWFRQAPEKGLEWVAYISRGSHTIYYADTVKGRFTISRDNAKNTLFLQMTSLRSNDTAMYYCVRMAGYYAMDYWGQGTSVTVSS VL: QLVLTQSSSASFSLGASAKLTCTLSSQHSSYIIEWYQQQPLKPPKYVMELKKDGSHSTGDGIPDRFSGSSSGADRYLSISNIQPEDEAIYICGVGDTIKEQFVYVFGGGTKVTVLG	0.06 OD450
F1.267.9 (antibody, human IgG1, kappa, V domains shown, human-murine chimeric IgG1 kappa; VL name legible) VH: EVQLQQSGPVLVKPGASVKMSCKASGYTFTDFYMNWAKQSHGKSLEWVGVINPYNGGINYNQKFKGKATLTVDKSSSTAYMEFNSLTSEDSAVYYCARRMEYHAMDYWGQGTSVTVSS VL: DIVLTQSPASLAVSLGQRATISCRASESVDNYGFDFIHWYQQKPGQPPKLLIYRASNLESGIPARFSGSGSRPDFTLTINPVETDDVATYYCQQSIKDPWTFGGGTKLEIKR	0.27 OD450
F2.343.16 (antibody, human IgG1, lambda, V domains shown, human-murine chimeric IgG1 lambda; VL name legible) VH: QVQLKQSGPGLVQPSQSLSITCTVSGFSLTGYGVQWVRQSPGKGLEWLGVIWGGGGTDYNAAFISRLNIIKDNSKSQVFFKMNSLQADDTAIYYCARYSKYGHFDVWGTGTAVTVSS VL: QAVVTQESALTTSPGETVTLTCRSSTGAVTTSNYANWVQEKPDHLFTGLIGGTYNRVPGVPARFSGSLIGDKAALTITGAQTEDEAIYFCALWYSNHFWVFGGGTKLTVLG	0.05 OD450

This collection of values is drawn from patent US20240084003A1.
